Target: T1, VPAC1 receptor (UniProt P32241 31-457, limits assumed)
T1 sequence (looked up): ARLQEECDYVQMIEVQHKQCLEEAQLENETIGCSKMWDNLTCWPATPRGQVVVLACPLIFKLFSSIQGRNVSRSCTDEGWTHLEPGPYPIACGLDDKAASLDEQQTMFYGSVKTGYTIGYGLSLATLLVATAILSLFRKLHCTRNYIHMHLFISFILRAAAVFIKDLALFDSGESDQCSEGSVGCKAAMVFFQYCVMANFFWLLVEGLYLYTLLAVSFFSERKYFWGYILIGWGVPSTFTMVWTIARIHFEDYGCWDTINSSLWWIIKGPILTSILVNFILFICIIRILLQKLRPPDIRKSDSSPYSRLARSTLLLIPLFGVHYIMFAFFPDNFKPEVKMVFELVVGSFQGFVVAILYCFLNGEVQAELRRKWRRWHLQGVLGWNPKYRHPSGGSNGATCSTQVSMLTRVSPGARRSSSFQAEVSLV
Test: cell-based or functional assay
Primed or numbered codes have the meaning given here. Where no end group is shown, it is not given here. [ ]: non-standard residue; d: D form. APC″ = 3-aminopyrrolidine-4-carboxylic acid (cyclic β-amino acid); ACPC″ = 2-aminocyclopentanecarboxylic acid (x in the sequences); APC = 3-aminopyrrolidine-4-carboxylic acid; ACPC = 2-aminocyclopentanecarboxylic acid; β3hN = NC(=O)C[C@H](N)CC(=O)O; β3hK = NCCCC[C@H](N)CC(=O)O; β3hV = CC(C)[C@H](N)CC(=O)O; Aib = CC(C)(N)C(=O)O; βAla = NCCC(=O)O
Recorded EC 50 vpac1 (Molar), cell-based cAMP assay for the following binders

Observe how each entry below is paired with its result.
- binder: "Ac-HSDAVFTENYTKLRKQ[ACPC″]AAK[APC″]YL[ACPC″]DLK[β3hK]GGT (not fully specified (C-terminus); printed as Ac-HSDAVFTENYTKLRKQxAAKzYLxDLKkGGT) [LBT-V220]"
  assay value: "9.51 nM"
- binder: "Ac-H[Aib]DA[β3hV]FTE[β3hN]YTKLRKQLAA[APC]KY[ACPC]NDL[β3hK]KG[βAla]T (not fully specified (C-terminus); printed as Ac-HBDAvFTEnYTKLRKQLAAzKYxNDLkKGgT) [LBT-V206]"
  assay value: "> 1000 nM"
- binder: "Ac-HSDAVFTDNYTRLRKQ[ACPC″]AAK[APC″]YL[ACPC″]SIK[β3hN]KRY (not fully specified (C-terminus); printed as Ac-HSDAVFTDNYTRLRKQxAAKzYLxSIKnKRY) [LBT-V221]"
  assay value: "0.195 nM"

Answer with reported EC 50 vpac1 (Molar), cell-based cAMP assay of Ac-H[ACPC]DA[ACPC]FTE[ACPC]YTKLRKQLAA[APC]KY[ACPC]NDL[β3hK]KG[βAla]T (not fully specified (C-terminus); printed as Ac-HxDAxFTExYTKLRKQLAAzKYxNDLkKGgT) [LBT-V209]
> 1000 nM
